B1: Pistol ribozyme (parent)
chain: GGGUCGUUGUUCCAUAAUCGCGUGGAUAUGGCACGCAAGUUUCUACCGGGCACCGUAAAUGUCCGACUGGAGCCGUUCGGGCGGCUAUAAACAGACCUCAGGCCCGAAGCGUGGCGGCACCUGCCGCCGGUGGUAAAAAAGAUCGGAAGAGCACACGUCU

Variants of: B1
protocol.description: aptazyme ON/OFF ratio, guanine; higher = stronger switching; co-transcriptional cleavage with and without guanine
measure.name: aptazyme ON/OFF ratio

mutation_notation="U7C U8G G9U C12A C13G" measure_name="aptazyme ON/OFF ratio" test_result=1.27
mutation_notation="U7G U8G U10G U11A C12G C13A" measure_name="aptazyme ON/OFF ratio" test_result=1.28
mutation_notation="U7G U8A G9U U11C C13U" measure_name="aptazyme ON/OFF ratio" test_result=1.09
mutation_notation="U7A U8A G9U U10A U11A C12A" measure_name="aptazyme ON/OFF ratio" test_result=1.22
mutation_notation="U7G U8A G9U U10A C12A" measure_name="aptazyme ON/OFF ratio" test_result=1.05
mutation_notation="U7A G9C U10C U11A C12A" measure_name="aptazyme ON/OFF ratio" test_result=1.06
mutation_notation="U10G U11A C12A C13A" measure_name="aptazyme ON/OFF ratio" test_result=1.11
mutation_notation="U7G U8A G9U U10C U11A C12A" measure_name="aptazyme ON/OFF ratio" test_result=1.12
mutation_notation="U8A G9A U10A C12A C13G" measure_name="aptazyme ON/OFF ratio" test_result=1.17
mutation_notation="U7G G9C C13G" measure_name="aptazyme ON/OFF ratio" test_result=1.14
mutation_notation="U7A U8C G9U U10A U11G C12G C13G" measure_name="aptazyme ON/OFF ratio" test_result=1.26
mutation_notation="U8G G9A U10C U11G C12U C13A" measure_name="aptazyme ON/OFF ratio" test_result=1.34
mutation_notation="U7C U8C G9C U10A U11G C13U" measure_name="aptazyme ON/OFF ratio" test_result=1.17
mutation_notation="U7C G9A U10G U11G C13G" measure_name="aptazyme ON/OFF ratio" test_result=1.05
mutation_notation="U7A U8A G9C U11G C12G" measure_name="aptazyme ON/OFF ratio" test_result=1.4
mutation_notation="U7G U8A G9C U10C U11A C12A" measure_name="aptazyme ON/OFF ratio" test_result=1.03
mutation_notation="U8C U10A U11G C12A C13U" measure_name="aptazyme ON/OFF ratio" test_result=1.33
mutation_notation="U7G U8C G9A U10G U11G C12G C13U" measure_name="aptazyme ON/OFF ratio" test_result=1.14
mutation_notation="U7C U8A G9C U10C C12U C13G" measure_name="aptazyme ON/OFF ratio" test_result=1.06
mutation_notation="U7C U8A G9C U10A U11A C12A" measure_name="aptazyme ON/OFF ratio" test_result=1.16
mutation_notation="U7C U8G G9C U10G U11C C12U" measure_name="aptazyme ON/OFF ratio" test_result=1.07
mutation_notation="U8A U10C U11A C13U" measure_name="aptazyme ON/OFF ratio" test_result=1.07
mutation_notation="U7C U8A U10C C12A C13A" measure_name="aptazyme ON/OFF ratio" test_result=1.17
mutation_notation="U7G U8G G9C U10G U11G C12U C13A" measure_name="aptazyme ON/OFF ratio" test_result=1.14
mutation_notation="U7G U10A U11G C12A C13G" measure_name="aptazyme ON/OFF ratio" test_result=1.09
mutation_notation="U7C U8C G9A U11A C13G" measure_name="aptazyme ON/OFF ratio" test_result=1.13
mutation_notation="U7A G9A U10A U11A C12U C13U" measure_name="aptazyme ON/OFF ratio" test_result=1.39
mutation_notation="U7C U8G G9U U10C U11G C12A C13A" measure_name="aptazyme ON/OFF ratio" test_result=1.1
mutation_notation="U7C U8C G9C U10C U11C C12A C13U" measure_name="aptazyme ON/OFF ratio" test_result=1.02
mutation_notation="U7G U8A G9A U11A C12U C13A" measure_name="aptazyme ON/OFF ratio" test_result=1.17
mutation_notation="U8A G9A U10A C12U C13U" measure_name="aptazyme ON/OFF ratio" test_result=1.33
mutation_notation="U7G G9C U10A U11C C12U C13G" measure_name="aptazyme ON/OFF ratio" test_result=1.19
mutation_notation="U7C U8G G9U U11G C12A C13A" measure_name="aptazyme ON/OFF ratio" test_result=1.17
mutation_notation="U7G G9U U11G C12A" measure_name="aptazyme ON/OFF ratio" test_result=1.82
mutation_notation="U7A U8C G9A U11G C12A C13U" measure_name="aptazyme ON/OFF ratio" test_result=1.08
mutation_notation="U8G U11C C12G C13G" measure_name="aptazyme ON/OFF ratio" test_result=1.3
mutation_notation="U7G U10A U11G C12G C13U" measure_name="aptazyme ON/OFF ratio" test_result=1.63
mutation_notation="U7A U8A G9A C12A C13A" measure_name="aptazyme ON/OFF ratio" test_result=1.06
mutation_notation="U7C U8C U11G C12U" measure_name="aptazyme ON/OFF ratio" test_result=1.25
mutation_notation="U7G U8A G9U U11C C12A C13A" measure_name="aptazyme ON/OFF ratio" test_result=1.1
mutation_notation="U7C U8C G9C U10A C12A C13U" measure_name="aptazyme ON/OFF ratio" test_result=1.21
mutation_notation="U7G U8A G9U U11C C12G" measure_name="aptazyme ON/OFF ratio" test_result=1.11
mutation_notation="U7G U8A G9C U10A U11A" measure_name="aptazyme ON/OFF ratio" test_result=1.09
mutation_notation="U8G U11G C12U C13G" measure_name="aptazyme ON/OFF ratio" test_result=1.24
mutation_notation="U8A G9C U11G C12U C13U" measure_name="aptazyme ON/OFF ratio" test_result=1.08
mutation_notation="U7A U8G G9U U10C C13A" measure_name="aptazyme ON/OFF ratio" test_result=1.33
